Tested on: primary human T-cells
measurement description: Proliferation assay after 5 days (CellTiter-Glo, CD3 stimulation; PBS counter screen)
Type: cell-based
particulars: Homo sapiens, T-cell, 120 h, CD3 stimulation, 5 days; normalized to reference compound A1 as stimulator control = 100%, DMSO neutral control; read-out: Emax proliferation (% activation)

compound	Emax / %
CC(C)(CO)c1noc(-c2cc3c(cc2F)S(=O)(=O)C[C@H](N)C(=O)N3Cc2ccc(Cl)cc2)n1 (racemic) [Example 46]	94
CCn1cnc(-c2cc3c(cc2F)S(=O)(=O)C[C@H](N)C(=O)N3Cc2ccc(Cl)cc2)n1 [Example 285]	60
CC(C)(C)c1nnc(-c2cc3c(cc2F)S(=O)(=O)C[C@H](N)C(=O)N3Cc2ccc(C#N)cc2)o1 [Example 220]	102
N[C@H]1CS(=O)(=O)c2cc(F)c(-c3nnc(NC4CCCC4)o3)cc2N(Cc2ccc(Cl)cc2)C1=O [Example 455]	115
N[C@H]1CS(=O)(=O)c2ccc(-c3nnc(N4CC5(CCCO5)C4)o3)cc2N(Cc2ccc(Cl)cc2)C1=O [Example 404]	101
N[C@H]1CS(=O)(=O)c2cc(F)c(-c3nnc(NC4CCC(F)(F)CC4)o3)cc2N(Cc2ccc(Cl)cc2)C1=O [Example 458]	116
Cc1nc(F)ccc1-c1nc(-c2cc3c(cc2F)S(=O)(=O)C[C@H](N)C(=O)N3Cc2ccc(Cl)cc2)no1 [Example 312]	163
CC(C)(C)n1nnc(-c2ccc3c(c2)N(Cc2ccc(Cl)cc2)C(=O)[C@@H](N)CS3(=O)=O)n1 [Example 36]	86
COc1ccc(CN2C(=O)[C@@H](N)CS(=O)(=O)c3cc(F)c(-c4nnc(C(C)(C)C)o4)cc32)nc1 [Example 228]	112
N[C@H]1CS(=O)(=O)c2cc(F)c(-c3nnc(-c4ccc(F)cn4)o3)cc2N(Cc2ccc(Cl)cc2)C1=O [Example 135]	93
CC(C)(C)c1nnc(-c2cc3c(cc2F)S(=O)(=O)C[C@H](N)C(=O)N3Cc2ccc(OCCCCCCCCCCCN)cc2)o1 [Example 257]	142
CC(C)(NCC(F)(F)F)c1nc(-c2cc3c(cc2F)S(=O)(=O)C[C@H](N)C(=O)N3Cc2ccc(Cl)cc2)no1 [Example 298]	162
CC(C)(C)c1nnc(-c2cc3c(cc2F)S(=O)(=O)C[C@H](N)C(=O)N3Cc2ccc(OCC(F)(F)F)cc2)o1 [Example 243]	129
CCOC(=O)N1CC2CC(c3nc(-c4cc5c(cc4F)S(=O)(=O)C[C@H](N)C(=O)N5Cc4ccc(Cl)cc4)no3)(C2)C1 [Example 315]	131
COC(F)(c1nnc(-c2ccc3c(c2)N(Cc2ccc(OC(F)(F)F)cc2)C(=O)[C@@H](N)CS3(=O)=O)o1)C(F)(F)F (stereo partly drawn) [Example 424]	88
CC(C)(C)c1nnc(-c2cc3c(cc2F)S(=O)(=O)C[C@H](N)C(=O)N3Cc2ccc(S(C)(=O)=O)cc2)o1 [Example 229]	116
N[C@H]1CS(=O)(=O)c2cc(F)c(-c3noc(C(F)C(F)(F)F)n3)cc2N(Cc2ccc(Cl)cc2)C1=O (stereo partly drawn) [Example 296]	66
CC(C)Nc1nnc(-c2ccc3c(c2)N(Cc2ccc(Cl)cc2)C(=O)[C@@H](N)CS3(=O)=O)o1 [Example 399]	73
CCn1nnc(-c2cc3c(cc2F)S(=O)(=O)C[C@H](N)C(=O)N3Cc2ccc(Cl)cc2)n1 [Example 7]	264
N[C@H]1CS(=O)(=O)c2cc(F)c(-c3nnc(C4CC5(C4)CC(F)(F)C5)o3)cc2N(Cc2ccc(Cl)cc2)C1=O [Example 94]	85
CN[C@@H](C)C(=O)N[C@H]1CS(=O)(=O)c2cc(F)c(-c3nnc(CC(F)(F)F)o3)cc2N(Cc2ccc(OC(F)(F)F)cc2)C1=O [Example 61]	144
CC(C)(C)c1nc(-c2cc3c(cc2F)S(=N)(=O)C[C@H](N)C(=O)N3Cc2ccc(Cl)cc2)no1 (stereo partly drawn) [Example 516]	51
C#CCC(C)(C)c1nnc(-c2cc3c(cc2F)S(=O)(=O)C[C@H](N)C(=O)N3Cc2ccc(C3(C(F)(F)F)N=N3)cc2)o1 [Example 359]	115
CCc1noc(-c2ccc3c(c2)N(Cc2ccc(Cl)cc2)C(=O)[C@@H](N)CS3(=O)=O)n1 [Example 51]	94
Cc1nnc(-c2nnc(-c3cc4c(cc3F)S(=O)(=O)C[C@H](N)C(=O)N4Cc3ccc(OC(F)(F)F)cc3)o2)o1 [Example 60]	110
N[C@H]1CS(=O)(=O)c2ccc(-c3nnc(CC(F)(F)F)o3)cc2N(Cc2ccc(OC(F)(F)F)cc2)C1=O [Example 416]	58
Cc1nnc(-c2nc(-c3cc4c(cc3F)S(=O)(=O)C[C@H](N)C(=O)N4Cc3ccc(Cl)cc3)no2)o1 [Example 322]	110

Values compiled from patent US20240368150A1.
